Taken from PubChem BioAssay (NCI).

- Tested on: K-562 leukemia
- test: NCI tumour cell line growth inhibition, 48 h
*1 amine or outer side, *2 acyl side, *3 side chain or, on linkers, in order; H or OH if unused. Where a SMILES comes first, the peptide text is derived from it. Bridges are numbered along the chain shown (N, C = ends). [ ]: non-standard residue; d: D form. The star is where a group is joined. X38 = CC[C@H](C)[C@@H](N[*:1])[C@@H](O)CC(=O)[*:2]; NMeY = CN[C@@H](Cc1ccc(O)cc1)C(=O)O; dNMeL = CN[C@H](CC(C)C)C(=O)O; Hiv = CC(C)[C@H](O)C(=O)O; Pyruvoyl = CC(=O)C(=O)*
measure.name: TGI

molecule	observed
N=C(N)c1nn(C2OC(CO)C(O)C2O)c2nc[nH]c(=O)c12 (stereo not drawn)	3.63 µM
NC(=O)[C@H]1CCN(c2ncnc(N)c2F)C[C@@H]1N1CCC[C@@H](Nc2cc(Cl)cc(C(F)(F)F)c2)C1=O	> 100 µM
O=C(O)CS(=O)(=O)C(c1ccccc1)c1ccccc1	> 100 µM
CSc1nnc(CCSc2ccnc3c(C(F)(F)F)cccc23)o1	> 100 µM
CC[C@H](C)[C@H]1NC(=O)[C@@H](NC(=O)[C@@H](CC(C)C)N(C)C(=O)[C@@H]2CCCN2C(=O)C(C)=O)[C@@H](C)OC(=O)[C@H](Cc2ccc(OC)cc2)N(C)C(=O)[C@@H]2CCCN2C(=O)[C@H](CC(C)C)NC(=O)[C@H](C(C)C)OC(=O)C[C@@H]1O (Pyruvoyl-P[dNMeL]T[X38][Hiv]LP[NMeY](Me); ester 3-C)	0.104 µM
COc1ccc(/C=C2\OC(=O)C(Cl)=C2c2ccc(OC)cc2)cc1	> 100 µM
C=CCC(N[C@H](CO)C(C)C)c1cn(C(=O)OCC)c2ccccc12 (stereo partly drawn)	25.8 µM
Fc1cc(C2=C[C@H](c3ccc(Cl)cc3)NC(=S)N2)c(Cl)cc1Cl	> 100 µM
O=S(=O)([O-])[O-].[Fe+2].c1ccc(/C(=N\Nc2ccccn2)c2ccccn2)cc1	8.44 µM
Cc1ccc(NCC2CC/C(=C\c3ccc(Cl)cc3)C2=O)cc1 (stereo not drawn)	> 19.8 µM
COc1ccc(C(=O)/C=C/c2ccc(Cl)cc2)cc1S(=O)(=O)Nc1c(N)nc(SC)[nH]c1=O	> 100 µM
CCc1nnc(CC)n1NCCCC(=O)O	> 100 µM
O=C1CC(=O)NC(=NN2C(=O)CSC2c2ccc(Cl)c(Cl)c2)N1 (stereo not drawn)	> 100 µM

* * *

- Test system: M14 melanoma
- test: NCI tumour cell line growth inhibition, 48 h

compound	TGI
N#CSc1ncnc2nc[nH]c12	> 100 µM
Cc1ccc(C(=O)Nc2ccc(S(=O)(=O)O)c3cc(S(=O)(=O)O)cc(S(=O)(=O)O)c23)cc1NC(=O)c1cccc(N)c1	> 100 µM
COC(=O)N1C[C@@]2(C=CC3(CC2)OCCO3)c2ccccc21	> 100 µM
Nc1cc(=O)[nH]c(SC2=NC(N)CC(O)C2)n1 (stereo unspecified)	> 100 µM
COc1cc(Cn2cc3c(c2)-c2oncc2CC3)cc(OC)c1OC	38.9 µM
COc1ccc(C(=O)/C=C/c2ccc(OCC(=N)N)cc2)cc1OC	> 10 µM
